Test system: MS2 coat protein
Experiment: apparent KD of MS2 coat protein; designed switch direction (-1 OFF switch, 1 ON switch): 1; higher = weaker reporter binding
Settings: input ligand: none
apparent KD of MS2 coat protein values by entry
Answer format: numeric, nM implied, no suffix.

Before answering, review these 3 worked examples.
GCUCGGACGAUGACCCACAUGAGGAUCACCCAUGUGCUUGGGCAGGAUAUCUAGAUUAAGGAUGUAGAGAAGGGUCGACCGAGC [SameState NG3 #29] (Eterna round: R96, puzzle: Same State NG 3) : 211
GAGUAGUUGAAAGGAUAUUGAUUAUUGUAGGAUCAAGAAGGUUUUAACAUGAGGAUCACCCAUGUAGGACUAUAAAUGUGAAAA [Parity 94 - Jieux - Same State NG 1] (Eterna round: R96, puzzle: Same State NG 1) : 15.6
UGGUACAUGGGAGGAUAUCUCAUGGAGACAUGAGGAUCACCCAUGUAGUAGGACCGGAAACGGUGAGAGAAGGCCCAUGUACCU [JL SSNG1 3.73] (Eterna round: R96, puzzle: Same State NG 2) : 51.5

Next up:
-- ask // returns reported apparent KD of MS2 coat protein for input AUAAUUUAUGCAGGAUAUGAUUAACAUGAGGAUCACCCAUGUGGUGUUGUGAGUAAGGAGAGUGAUCAGAAGGGCAUUUUUUUU [JMF's solution 70] (Eterna round: R96, puzzle: Same State NG 2)
-- reply 400
